Please go through the items and note down their T/C.
tested on: BALB/c mice, Madison 109 lung carcinoma i.m., survival; assay: NCI In Vivo Anticancer Drug Screen. Data for tumor model Madison 109 Lung Carcinoma (intramuscular) in BALB/CM mice; conditions: endpoint: median survival time; dose: 25.0 mg/kg/injection; schedule: Q01DX009 (ip); vehicle: saline with Tween-80; higher = longer survival
Inconclusive results and toxic doses are left out.

INPUT: Reported T/C for CCOC(=O)CC(SP(=S)(OC)OC)C(=O)OCC (stereo not given) : what is it?
OUTPUT: 108 % of control

INPUT: Given the compound ClC1C(Cl)C(Cl)C(Cl)C(Cl)C1Cl (stereo not given) , what is its reported T/C?
OUTPUT: 116 % of control

INPUT: May I ask what T/C has been recorded for Nc1ccc(S(N)(=O)=O)cc1 ?
OUTPUT: 95 % of control

INPUT: Fill in: T/C of CN(C)/N=N/c1nc[nH]c1C(N)=O is ___
OUTPUT: 124 % of control

INPUT: Any idea what its T/C is? The compound is O=c1ccc2ccccc2o1
OUTPUT: 118 % of control

---

Could you please report measured T/C for the items listed next?
tested on: BALB/c mice, Madison 109 lung carcinoma i.m., survival; experiment: NCI In Vivo Anticancer Drug Screen. Data for tumor model Madison 109 Lung Carcinoma (intramuscular) in BALB/CM mice; settings: endpoint: median survival time; dose: 32.0 mg/kg/injection; schedule: Q01DX009 (ip); vehicle: saline; higher = longer survival
Toxic doses and inconclusive results are not listed.

INPUT: Enter reported T/C observed with BALB/c mice, Madison 109 lung carcinoma i.m., survival for CCN(CC)CCOc1ccc2c(c1)C(=O)c1cc(OCCN(CC)CC)ccc1-2
OUTPUT: 108 % of control

INPUT: # value lookup — system BALB/c mice, Madison 109 lung carcinoma i.m., survival, readout T/C, item NC(C/[N+]([O-])=N/O)C(=O)O (stereo not given)
OUTPUT: 99 % of control

INPUT: Report T/C for O=c1ccn(C2OC(CO)C(O)C2O)c(=O)[nH]1 (stereo not given) tested on BALB/c mice, Madison 109 lung carcinoma i.m., survival.
OUTPUT: 111 % of control

INPUT: Find the measured T/C: item CC1=C(/C=C/C(C)=C/C=C/C(C)=C/CO)C(C)(C)CCC1 , target or system BALB/c mice, Madison 109 lung carcinoma i.m., survival.
OUTPUT: 98 % of control

INPUT: BALB/c mice, Madison 109 lung carcinoma i.m., survival / T/C / CC1=C(/C=C/C(C)=C/C=C/C(C)=C/C(=O)O)C(C)(C)CCC1 : value?
OUTPUT: 104 % of control

---

Tested on: BALB/c mice, Madison 109 lung carcinoma i.m., survival
Experiment: NCI In Vivo Anticancer Drug Screen. Data for tumor model Madison 109 Lung Carcinoma (intramuscular) in BALB/CM mice
Settings: endpoint: median survival time; dose: 20.0 mg/kg/injection; schedule: Q01DX009 (ip); vehicle: saline with Tween-80; higher = longer survival
Protocol: The antitumor activity of compounds was measured in mice bearing transplantable tumors. Survival or tumor size were measured and the results are expressed as the measurement made in the treated group (T) divided by the measurement made in the vehicle treated control group (C). The tumor model used in this assay is Madison 109 Lung Carcinoma (intramuscular) in BALB/CM mice
Toxic doses and inconclusive results are not listed.
reported metric: T/C

INPUT: For O=[N+]([O-])c1ccc(Cl)c([N+](=O)[O-])c1 , what is its reported T/C?
OUTPUT: 93 % of control

INPUT: Given C[C@]12C=CC(=O)C=C1CC[C@@H]1[C@@H]2C(=O)C[C@@]2(C)[C@H]1CC[C@]2(O)C(=O)CO , state its recorded T/C.
OUTPUT: 97 % of control

INPUT: What does the record list as T/C for COc1cccc2c1C(=O)c1c(O)c3c(c(O)c1C2=O)CC(O)(C(=O)CO)CC3OC1CC(N)C(O)C(C)O1 (centres undefined) ?
OUTPUT: 108 % of control

INPUT: I have this molecule here, O=[N+]([O-])c1cccc([N+](=O)[O-])c1Cl , and I need its recorded T/C.
OUTPUT: 120 % of control [middle of 4 runs]

---

test system: BALB/c mice, Madison 109 lung carcinoma i.m., survival; assay: NCI In Vivo Anticancer Drug Screen. Data for tumor model Madison 109 Lung Carcinoma (intramuscular) in BALB/CM mice; details: endpoint: median survival time; dose: 32.0 mg/kg/injection; schedule: Q01DX009 (ip); vehicle: saline with Tween-80; higher = longer survival
Inconclusive results and toxic doses are left out.
reported metric: T/C

INPUT: Entry COc1ccc(C[C@H](N)C(=O)NC2C(CO)OC(n3cnc4c(N(C)C)ncnc43)C2O)cc1 (stereo not given in full) : reported T/C = ?
OUTPUT: 104 % of control

INPUT: T/C for CC(C)NCC(O)COc1cccc2ccccc12 (stereo not given) ?
OUTPUT: 124 % of control

INPUT: Bench note: what T/C did O=S(=O)(O)O show?
OUTPUT: 111 % of control

INPUT: Look up T/C for this compound: N=C(N)c1ccc(/C=C/c2ccc(C(=N)N)cc2)cc1
OUTPUT: 119 % of control

INPUT: Value lookup for T/C; key = CCN(CC)CCCC(C)Nc1c2ccc(Cl)cc2nc2ccc(OC)cc12 (stereo not given)
OUTPUT: 104 % of control
